biological target: Broad substrate specificity ATP-binding cassette transporter ABCG2 (Homo sapiens, UniProt Q9UNQ0); assay: Reversal of BCRP-mediated drug resistant in human HEK293/R2 cells assessed as potentiation of topotecan-induced cytotoxicity at 1 uM after 5 days by MTS assay; format: cell-based; details: hek293/r2, 120 h
Sequence (Q9UNQ0 whole entry): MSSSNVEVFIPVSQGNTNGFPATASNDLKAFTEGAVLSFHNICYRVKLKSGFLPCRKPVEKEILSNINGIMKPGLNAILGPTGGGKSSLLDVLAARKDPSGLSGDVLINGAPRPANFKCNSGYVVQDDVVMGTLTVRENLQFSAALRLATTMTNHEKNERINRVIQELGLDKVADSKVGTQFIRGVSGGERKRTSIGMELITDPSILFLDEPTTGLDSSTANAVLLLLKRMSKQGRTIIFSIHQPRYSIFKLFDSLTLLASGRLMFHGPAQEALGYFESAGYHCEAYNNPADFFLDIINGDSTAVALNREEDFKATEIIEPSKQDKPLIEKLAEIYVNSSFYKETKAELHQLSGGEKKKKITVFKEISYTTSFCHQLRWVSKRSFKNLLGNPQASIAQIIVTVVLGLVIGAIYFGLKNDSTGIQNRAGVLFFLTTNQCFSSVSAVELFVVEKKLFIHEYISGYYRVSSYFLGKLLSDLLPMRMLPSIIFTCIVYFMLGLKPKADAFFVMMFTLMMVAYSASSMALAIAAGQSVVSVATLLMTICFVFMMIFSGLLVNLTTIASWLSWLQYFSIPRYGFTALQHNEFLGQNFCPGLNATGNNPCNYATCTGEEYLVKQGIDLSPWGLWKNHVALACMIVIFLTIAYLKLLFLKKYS
endpointName: fold change (FC)

| smilesInput | endpointName | value |
| --- | --- | --- |
| COc1cc(OC)c2c(=O)c(OC)c(-c3ccc(OC)c(OC)c3)oc2c1 | fold change (FC) | 8.7 |
| COc1cc(OC)c2c(=O)c(OCCOC(=O)c3ccc(OC)c(OC)c3)c(-c3ccc(OC)c(OC)c3)oc2c1 | fold change (FC) | 4.6 |
| COc1cc(OC)c2c(=O)c(OCc3cc(OC)c(OC)c(OC)c3)c(-c3ccc(OC)c(OC)c3)oc2c1 | fold change (FC) | 11.3 |
| COc1cc(OC)c2c(=O)c(OCCOC(=O)c3cc(OC)c(OC)c(OC)c3)c(-c3ccc(OC)c(OC)c3)oc2c1 | fold change (FC) | 4.7 |
| COc1cc(OC)c2c(=O)c(OCCOc3cc4c(Nc5ccc(F)c(Cl)c5)ncnc4cc3OC)c(-c3ccc(OC)c(OC)c3)oc2c1 | fold change (FC) | 4.3 |
| COc1ccc(C(=O)OCCOc2c(-c3ccc(OC)c(OC)c3)oc3cc(OC)cc(OC)c3c2=O)cc1 | fold change (FC) | 12.1 |
| COc1cc(OC)c2c(=O)c(OCCOC(=O)/C=C/c3cc(OC)c(OC)c(OC)c3)c(-c3ccc(OC)c(OC)c3)oc2c1 | fold change (FC) | 14 |
| COc1cc(OC)c2c(=O)c(OCCn3cnc4c(=O)n(C)c(=O)n(C)c43)c(-c3ccc(OC)c(OC)c3)oc2c1 | fold change (FC) | 1.4 |
| C[C@@H]1O[C@@H](OC[C@H]2O[C@@H](Oc3c(-c4ccc(O)c(O)c4)oc4cc(O)cc(O)c4c3=O)[C@H](O)[C@@H](O)[C@@H]2O)[C@H](O)[C@H](O)[C@H]1O | fold change (FC) | 1.3 |
| COc1cc(OC)c2c(=O)c(OCCO)c(-c3ccc(OC)c(OC)c3)oc2c1 | fold change (FC) | 3.9 |
